Just for reference, patent EP4745128A1 is where these values come from.

Assay: Pharmacokinetic assessment in mice
Assay type: in vivo
Settings: plasma; mouse PO (30 mg/kg)
Reported Endpoint: bioavailability (%)
API: value field is a number in %; no unit string.

Asked: Form field: reported bioavailability of O=C(CO[C@H]1C[C@@H](OC(F)(F)F)C1)NC12CC(Nc3nccnc3O[C@H]3C[C@@H](OC(F)(F)F)C3)(C1)C2 [Compound 3]
Given back: 114

----------
Assay: Pharmacokinetic assessment in mice
Type: in vivo
Conditions: plasma; mouse PO (30 mg/kg)
Reported Endpoint: half-life (h)
Write down the numeric answer in h and omit the unit.

Asked: What does the record list as half-life for `O=C(CO[C@H]1C[C@@H](OC(F)(F)F)C1)NC12CC(Nc3nccnc3O[C@H]3C[C@@H](OC(F)(F)F)C3)(C1)C2` ?
Given back: 8.52

----------
Test: Pharmacokinetic assessment in mice
Format: in vivo
Conditions: plasma; mouse IV (1 mg/kg)
Reported Endpoint: clearance (mL/min/kg)
The figure you give is taken to be in mL/min/kg; do not add the unit.

Asked: Query (molecule): `O=C(CO[C@H]1C[C@@H](OC(F)(F)F)C1)NC12CC(Nc3nccnc3O[C@H]3C[C@@H](OC(F)(F)F)C3)(C1)C2` ; field requested: clearance
Given back: 2.49

----------
Assay: Pharmacokinetic assessment in mice
Type: in vivo
Conditions: plasma; mouse IV (1 mg/kg)
Reported Endpoint: half-life (h)
Write it as a number; the unit h goes unstated.

Asked: I would be grateful if you could share the reported half-life for `O=C(CO[C@H]1C[C@@H](OC(F)(F)F)C1)NC12CC(Nc3nccnc3O[C@H]3C[C@@H](OC(F)(F)F)C3)(C1)C2` .
Given back: 7.37

----------
Experiment: Pharmacokinetic assessment in mice
Assay type: in vivo
Settings: plasma; mouse PO (30 mg/kg)
Reported Endpoint: Cmax (ng/mL)
Could you give me the number in ng/mL? Just the number is fine.

Asked: Fill in the blank: the reported Cmax of `O=C(CO[C@H]1C[C@@H](OC(F)(F)F)C1)NC12CC(Nc3nccnc3O[C@H]3C[C@@H](OC(F)(F)F)C3)(C1)C2` is ____.
Given back: 20100
